TARGET_SYSTEM: human NaV 1.8 (Homo sapiens)
METHOD_DESCRIPTION: E-VIPR assay detecting and measuring NaV inhibition properties
Assay type: cell-based
CONDITION_SET: HEK cells expressing truncated human NaV 1.8; no human serum; read-out: IC50 in the E-VIPR Assay
# IC50 annotations

Worked set:
* COc1c([C@H]2[C@H](C(=O)Nc3cncc(S(=O)(=O)N(C)C)c3)O[C@@](C)(C(F)(F)F)[C@H]2C)ccc(F)c1F (stereo in doubt) | 10 to 100 nM
* COc1c([C@H]2[C@H](C(=O)Nc3ccnc(O[C@H]4COC[C@H]4O)n3)O[C@@](C)(C(F)(F)F)[C@H]2C)ccc(F)c1F (single isomer, unassigned) | 10 to 100 nM
* COc1c([C@H]2[C@H](C(=O)NCC#N)O[C@@](C)(C(F)(F)F)[C@H]2C)ccc(F)c1F | ≥ 1000 nM

Please look at the following compound next.
Query block: Name the reported IC50 value associated with the compound `COCCOc1c([C@H]2[C@H](C(=O)Nc3ccc(=O)n(C)c3)O[C@@](C)(C(F)(F)F)[C@H]2C)ccc(F)c1F`
Result block: < 10 nM

###

# pIC50 annotations
TARGET_SYSTEM: human NaV 1.8 (Homo sapiens, UniProt Q9Y5Y9)
Sequence (Q9Y5Y9 126-399 limits assumed): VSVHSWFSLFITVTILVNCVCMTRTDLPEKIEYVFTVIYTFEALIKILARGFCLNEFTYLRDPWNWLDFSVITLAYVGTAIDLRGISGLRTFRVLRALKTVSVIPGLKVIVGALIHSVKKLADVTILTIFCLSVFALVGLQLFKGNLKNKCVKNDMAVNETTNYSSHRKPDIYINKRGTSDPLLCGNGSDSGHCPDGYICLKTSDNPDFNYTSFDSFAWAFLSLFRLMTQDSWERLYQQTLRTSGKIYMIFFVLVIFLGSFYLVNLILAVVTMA
Sequence (Q9Y5Y9 660-890 limits assumed): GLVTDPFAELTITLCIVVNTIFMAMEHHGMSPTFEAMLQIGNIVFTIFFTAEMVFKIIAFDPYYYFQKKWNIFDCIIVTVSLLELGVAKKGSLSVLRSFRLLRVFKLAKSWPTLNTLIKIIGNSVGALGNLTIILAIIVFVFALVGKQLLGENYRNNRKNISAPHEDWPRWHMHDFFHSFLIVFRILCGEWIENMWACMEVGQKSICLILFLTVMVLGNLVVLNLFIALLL
Sequence (Q9Y5Y9 1148-1722 limits assumed): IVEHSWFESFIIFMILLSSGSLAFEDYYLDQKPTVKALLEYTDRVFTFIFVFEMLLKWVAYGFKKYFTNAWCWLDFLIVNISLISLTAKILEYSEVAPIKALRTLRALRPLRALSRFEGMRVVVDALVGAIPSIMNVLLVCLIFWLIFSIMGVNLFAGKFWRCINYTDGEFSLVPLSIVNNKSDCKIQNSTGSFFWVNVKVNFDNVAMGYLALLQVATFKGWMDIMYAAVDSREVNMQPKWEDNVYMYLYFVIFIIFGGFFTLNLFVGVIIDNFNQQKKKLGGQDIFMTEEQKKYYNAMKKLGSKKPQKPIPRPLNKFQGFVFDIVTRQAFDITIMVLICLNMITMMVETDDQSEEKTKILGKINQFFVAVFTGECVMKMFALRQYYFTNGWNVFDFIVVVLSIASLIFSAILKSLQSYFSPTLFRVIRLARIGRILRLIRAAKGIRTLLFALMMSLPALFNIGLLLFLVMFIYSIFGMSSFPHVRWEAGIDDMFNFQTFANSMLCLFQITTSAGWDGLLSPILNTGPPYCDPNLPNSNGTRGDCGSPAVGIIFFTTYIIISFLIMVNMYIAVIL
METHOD_DESCRIPTION: E-VIPR assay detecting and measuring NaV inhibition properties
Type: cell-based
CONDITION_SET: HEK cells expressing truncated human NaV 1.8; no human serum; read-out: IC50 in the E-VIPR Assay
pIC50: −log10 of the molar value.

Worked set:
- Cc1nocc1NC(=O)[C@@H]1O[C@@](C)(C(F)(F)F)[C@@H](C)[C@H]1c1ccc(F)c(F)c1OCCN1CC(OC(F)F)C1: 7.00 to 8.00
- Cc1nn(C(F)F)cc1NC(=O)[C@@H]1O[C@@](C)(C(F)(F)F)[C@@H](C)[C@H]1c1ccc(F)c(F)c1OCc1cn[nH]c1: > 8.00
- Cc1c(F)ccc([C@@H]2[C@@H](C(=O)Nc3ccn(C)c(=O)c3)O[C@](C)(C(F)(F)F)[C@@H]2C)c1OC(F)F (stereo in doubt): ≤ 6.00

Query block: Name the reported pIC50 value associated with the compound `COCn1cnc(NC(=O)[C@@H]2O[C@@](C)(C(F)(F)F)[C@@H](C)[C@H]2c2ccc(F)c(F)c2OCCO)n1`
Result block: ≤ 6.00

Query block: Name the reported pIC50 value associated with the compound `COc1c([C@H]2[C@H](C(=O)Nc3ccc(CC4CCOCC4)nc3)O[C@@](C)(C(F)(F)F)[C@H]2C)ccc(F)c1F`
Result block: 6.00 to 7.00

Query block: Name the reported pIC50 value associated with the compound COc1c([C@@H]2[C@@H](C(=O)Nc3ccc4cnnn4c3)O[C@](C)(C(F)(F)F)[C@@H]2C)ccc(F)c1C(F)F (stereo in doubt)
Result block: 6.00 to 7.00

Query block: Name the reported pIC50 value associated with the compound COc1c([C@H]2[C@H](C(=O)Nc3cc(C4CN(C)CCO4)ncc3F)O[C@@](C)(C(F)(F)F)[C@H]2C)ccc(F)c1F (single isomer, unassigned) [Compound 366]
Result block: > 8.00

Query block: Name the reported pIC50 value associated with the compound COc1c([C@@H]2[C@@H](C(=O)Nc3ccnc(C(=O)O)c3)O[C@](C)(C(F)(F)F)[C@@H]2C)ccc(F)c1C(F)F (single isomer, unassigned)
Result block: 6.00 to 7.00

Query block: Name the reported pIC50 value associated with the compound COc1c([C@H]2[C@H](C(=O)Nc3ccnc(C(CO)OC)c3)O[C@@](C)(C(F)(F)F)[C@H]2C)ccc(F)c1F (single isomer, unassigned)
Result block: > 8.00

Query block: Name the reported pIC50 value associated with the compound `COc1c([C@H]2[C@H](C(=O)Nc3ccnc(CN(C)C)c3)O[C@@](C)(C(F)(F)F)[C@H]2C)ccc(F)c1F`
Result block: > 8.00

Query block: Name the reported pIC50 value associated with the compound `COc1c([C@H]2[C@H](C(=O)Nc3ccnc(CN[C@@H]4CCOC4)c3)O[C@@](C)(C(F)(F)F)[C@H]2C)ccc(F)c1F`
Result block: > 8.00

Query block: Name the reported pIC50 value associated with the compound `COc1c([C@H]2[C@H](C(=O)Nc3ccc(C[C@@H](O)CO)nc3)O[C@@](C)(C(F)(F)F)[C@H]2C)ccc(F)c1F`
Result block: 7.00 to 8.00

Query block: Name the reported pIC50 value associated with the compound `C[C@H]1[C@@H](c2ccc(F)c(F)c2OCCN2CC(F)C2)[C@H](C(=O)Nc2ccc3nncn3c2)O[C@@]1(C)C(F)(F)F`
Result block: 7.00 to 8.00

###

# pIC50 annotations
TARGET_SYSTEM: human NaV 1.8 (Homo sapiens)
METHOD_DESCRIPTION: E-VIPR assay detecting and measuring NaV inhibition properties
Type: cell-based
CONDITION_SET: HEK cells expressing truncated human NaV 1.8; no human serum; read-out: IC50 in the E-VIPR Assay
pIC50: −log10 of the molar value.

- COc1c(C2C(C(=O)Nc3ccc(P(C)(C)=O)cc3)OC(C)(C(F)(F)F)C2C)ccc(F)c1F (single isomer, unassigned) [Compound 39]: 6.00 to 7.00
- CCS(=O)(=O)c1cc(NC(=O)C2OC(C)(C(F)(F)F)C(C)C2c2ccc(F)c(F)c2OC)ccn1 (single isomer, unassigned) [Compound 51]: > 8.00
- CN=S(C)(=O)c1ccc(NC(=O)[C@@H]2O[C@@](C)(C(F)(F)F)[C@@H](C)[C@H]2c2ccc(F)c(F)c2OC)cn1 (single isomer, unassigned) [Compound 338]: 7.00 to 8.00
- COc1c([C@H]2[C@H](C(=O)NCc3cc(C(N)=O)co3)O[C@@](C)(C(F)(F)F)[C@H]2C)ccc(F)c1F [Compound 286]: ≤ 6.00
- COc1c(C2C(C(=O)Nc3cccc(P(C)(C)=O)c3)OC(C)(C(F)(F)F)C2C)ccc(F)c1F (single isomer, unassigned) [Compound 41]: ≤ 6.00
- Cc1oncc1NC(=O)[C@@H]1O[C@@](C)(C(F)(F)F)[C@@H](C)[C@H]1c1ccc(F)c(F)c1OCCO [Compound 559]: 7.00 to 8.00
- COc1c([C@H]2[C@H](C(=O)N[C@H]3C[C@@H]3c3cnn(C)c3)O[C@@](C)(C(F)(F)F)[C@H]2C)ccc(F)c1F (relative stereo) [Compound 267]: > 8.00

Query block: Name the reported pIC50 value associated with the molecule COc1c([C@@H]2[C@H](C)[C@H](C(C)C)O[C@H]2C(=O)Nc2cccnc2)ccc(F)c1F [Compound 720]
Result block: 6.00 to 7.00

###

TARGET_SYSTEM: human NaV 1.8 (Homo sapiens, UniProt Q9Y5Y9)
METHOD_DESCRIPTION: E-VIPR assay detecting and measuring NaV inhibition properties
Assay type: cell-based
CONDITION_SET: HEK cells expressing truncated human NaV 1.8; no human serum; read-out: IC50 in the E-VIPR Assay
# IC50 annotations

Query block: Name the reported IC50 value associated with the compound COCCOc1c([C@H]2[C@H](C(=O)Nc3cnn(C(C)(C)CO)c3)O[C@@](C)(C(F)(F)F)[C@H]2C)ccc(F)c1F [Compound 582]
Result block: 100 to 1000 nM

Query block: Name the reported IC50 value associated with the compound COC[C@@H](C)Oc1c([C@H]2[C@H](C(=O)Nc3ccnc(CO)c3)O[C@@](C)(C(F)(F)F)[C@H]2C)ccc(F)c1F [Compound 646]
Result block: < 10 nM

Query block: Name the reported IC50 value associated with the compound COc1c([C@H]2[C@H](C(=O)Nc3ccc(-c4ccn(C)n4)nc3)O[C@@](C)(C(F)(F)F)[C@H]2C)ccc(F)c1F [Compound 400]
Result block: 100 to 1000 nM

Query block: Name the reported IC50 value associated with the compound Cc1nn(C(F)F)cc1NC(=O)[C@@H]1O[C@@](C)(C(F)(F)F)[C@@H](C)[C@H]1c1ccc(F)c(F)c1OC1CC(O)C1 (stereo partly drawn) [Compound 600]
Result block: 10 to 100 nM

Query block: Name the reported IC50 value associated with the compound C[C@H]1[C@@H](c2ccc(F)c(F)c2OCCO)[C@H](C(=O)Nc2cnn(C)c(=O)c2)O[C@@]1(C)C(F)(F)F [Compound 568]
Result block: 10 to 100 nM

Query block: Name the reported IC50 value associated with the compound C[C@@H]1[C@H](c2ccc(F)c(F)c2OC(F)F)[C@@H](C(=O)Nc2ccn(C)c(=O)c2)O[C@]1(C)C(F)(F)F (single isomer, unassigned) [Compound 77]
Result block: ≥ 1000 nM
